# Tested on: IFNγ
# measurement protocol: Inhibition of the IFNγ production of peripheral mononuclear blood cells (phytohemagglutinin-stimulated)
# Format: cell-based
# assay conditions: human peripheral mononuclear blood cells, 5 μg/mL phytohemagglutinin, 48 hours; read-out: Inhibition of the IFNγ Secretion (IC50)
reported endpoint: IC50 (nM)
Give a bare numeral; the unit nM is implied.

Cc1ccc(-n2c(-c3ccccc3)nc3ccc(OCCCCCC(=O)OC(C)C)cc32)cc1 : 1300

Reported IC50 ( Cc1ccc(-n2c(-c3ccccc3)nc3ccc(OCCCCCC(=O)O)cc32)cc1 ) = 110

====

# Tested on: TNFα
# measurement protocol: Inhibition of TNFα production of peripheral mononuclear blood cells stimulated with LPS and IFNγ
# Type: cell-based, human
# assay conditions: Homo sapiens, 24 hours, read-out: Inhibition of TNF-alpha Secretion after LPS & IFNg Stimulation IC50
// values below are reported IC50
Give a bare numeral; the unit nM is implied.

Cc1ccc(-n2c(-c3ccccc3)nc3ccc(OCCCCCC(=O)OC(C)C)cc32)cc1 [Substance 1] : 650

Reported IC50 ( Cc1ccc(-n2c(-c3ccccc3)nc3ccc(OCCCCCC(=O)O)cc32)cc1 [Substance 2] ) = 120
